# System: HeLa
# Method description: Tested for minimum inhibitory concentration against RSV in HeLa cells
# Format: functional
# Assay setup: Homo sapiens
Endpoint: MIC (µg/mL)

{"Compound": "CCc1nc2c(N)ncnc2n1C1O[C@H](CO)[C@@H](O)[C@H]1O (some centres undefined)", "Relation": "=", "Recorded value": 10}
{"Compound": "Cc1nc2c(N)ncnc2n1C1O[C@H](CO)[C@@H](O)[C@H]1O (some centres undefined)", "Relation": "=", "Recorded value": 4}
{"Compound": "C=Cc1nc2c(N)ncnc2n1[C@@H]1O[C@H](CO)[C@@H](O)[C@H]1O", "Relation": "=", "Recorded value": 4}
{"Compound": "C=Cc1ncnc2c1ncn2C1O[C@H](CO)[C@@H](O)[C@H]1O (some centres undefined)", "Relation": ">", "Recorded value": 4}

---

# System: HeLa
# Method description: Tested for minimum cytotoxic concentration on RSV (respiratory syncytial virus)-induced cytopathicity in HeLa cells
# Assay type: functional
# Assay setup: Homo sapiens
# binarize MCC: threshold 20 µg/mL inclusive, high side t, low side f

{"Compound": "CCc1nc2c(N)ncnc2n1C1O[C@H](CO)[C@@H](O)[C@H]1O (stereo partly specified)", "Label class": "t"}
{"Compound": "C=Cc1ncnc2c1ncn2C1O[C@H](CO)[C@@H](O)[C@H]1O (stereo partly specified)", "Label class": "f"}
{"Compound": "CCc1nc(N)c2ncn(C3O[C@H](CO)[C@@H](O)[C@H]3O)c2n1 (stereo partly specified)", "Label class": "f"}
{"Compound": "C=Cc1nc2c(N)ncnc2n1[C@@H]1O[C@H](CO)[C@@H](O)[C@H]1O", "Label class": "t"}
{"Compound": "Cc1ncnc2c1ncn2[C@@H]1O[C@H](CO)[C@@H](O)[C@H]1O", "Label class": "f"}

---

# Test system: E6SM
# Method description: Tested for minimum cytotoxic concentration on virus-induced cytopathicity in E6SM cells
# Format: functional
# Assay setup: Homo sapiens
Entries and their measured MCC follow.

{"Compound": "C=Cc1nc2c(N)ncnc2n1[C@@H]1O[C@H](CO)[C@@H](O)[C@H]1O", "MCC": "> 400 µg/mL"}
{"Compound": "Cc1nc2c(N)ncnc2n1C1O[C@H](CO)[C@@H](O)[C@H]1O (some centres undefined)", "MCC": "> 200 µg/mL"}
{"Compound": "C=Cc1ncnc2c1ncn2C1O[C@H](CO)[C@@H](O)[C@H]1O (some centres undefined)", "MCC": "10 µg/mL"}
{"Compound": "O=c1[nH]c(=O)n([C@H]2C[C@H](O)[C@@H](CO)O2)cc1/C=C/Br", "MCC": "> 400 µg/mL"}
{"Compound": "CCc1nc2c(N)ncnc2n1C1O[C@H](CO)[C@@H](O)[C@H]1O (some centres undefined)", "MCC": "> 100 µg/mL"}
{"Compound": "Nc1nccc2c1ncn2[C@@H]1O[C@H](CO)[C@@H](O)[C@H]1O", "MCC": "> 400 µg/mL"}
{"Compound": "Cc1ncnc2c1ncn2[C@@H]1O[C@H](CO)[C@@H](O)[C@H]1O", "MCC": "1 µg/mL"}
{"Compound": "CCc1nc(N)c2ncn(C3O[C@H](CO)[C@@H](O)[C@H]3O)c2n1 (some centres undefined)", "MCC": "> 10 µg/mL"}
{"Compound": "NC(=O)c1ncn([C@@H]2O[C@H](CO)[C@@H](O)[C@H]2O)n1", "MCC": "> 400 µg/mL"}
